All values here come from paper PMC9482650.

target_or_system: T1, PTPN13_5, Q12923
T1 sequence (Q12923 1877-1975, limits assumed, looked up): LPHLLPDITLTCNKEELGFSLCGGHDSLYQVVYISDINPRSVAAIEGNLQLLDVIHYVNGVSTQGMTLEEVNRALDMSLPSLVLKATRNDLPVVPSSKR
method_notes: holdup assay
Design: key: below the threshold = too weak to quantify, mostly under pKd 3.1 to 4
condition_label: plain residues with an end cap or a label only (N-terminal biotin on a linker: ttds)

{"binder": "PSRDRKETSI [RALBP1, Q15311]", "pKd": "below the threshold"}
{"binder": "SSIDLWETAL [SLC15A5, A6NIM6]", "pKd": 4.86}
{"binder": "PPRQRSETQV [HPV82-E6, Q9IR59]", "pKd": "below the threshold"}
